Every entry's value here was drawn from ChEMBL document CHEMBL1649159.

Overview of reported Km across a group of molecules:
Protocol Text: Drug activation in metronidazole-resistant Helicobacter pylori RIG 117 J56 lysate
Number only, in µM; omit the unit.

Molecule	Unit Label	Readout Value
NC(=O)N/N=C/c1ccc([N+](=O)[O-])o1	µM	8.5

Request: Which Km value belongs to Cc1cc2nc3c(=O)[nH]c(=O)nc-3n(C[C@H](O)[C@H](O)[C@H](O)COP(=O)(O)OP(=O)(O)OC[C@H]3O[C@@H](n4cnc5c(N)ncnc54)[C@H](O)[C@@H]3O)c2cc1C [FLAVIN ADENIN DINUCLEOTIDE] ?
Result: 11

* * *

Overview of reported Km across a group of molecules:
Protocol Text: Drug activation in metronidazole-susceptible Helicobacter pylori CAS 015 J0 lysate
Quick note: unit goes after the number.

Molecule	Km
Cc1cc2nc3c(=O)[nH]c(=O)nc-3n(C[C@H](O)[C@H](O)[C@H](O)COP(=O)(O)OP(=O)(O)OC[C@H]3O[C@@H](n4cnc5c(N)ncnc54)[C@H](O)[C@@H]3O)c2cc1C [FLAVIN ADENIN DINUCLEOTIDE]	2.4 µM

Below: the item to evaluate.
Request: Which Km value belongs to NC(=O)N/N=C/c1ccc([N+](=O)[O-])o1 [NITROFURAZONE] ?
Result: 8.8 µM
